The measurements presented in this section are drawn from patent US20250304650A1.

TARGET UNDER TEST: feline FcRn (FCN-F82W3, Acrobiosystems) (feline)
MEASUREMENT PROTOCOL: SPR Carterra, IgG coupled, pH 6.0
Listed here: items and their measured kon.
Unit M⁻¹ s⁻¹ implied. Number only.

Let me know recorded kon for anti-NGF feline IgG1a, Fc variant S426H (antibody, part only; not given: anti-NGF variable domains, not shown: another chain or arm of the molecule; small tags and cut ends) Fc: PPEMLGGPSIFIFPPKPKDTLSISRTPEVTCLVVDLGPDDSDVQITWFVDNTQVYTAKTSPREEQFNSTYRVVSVLPILHQDWLKGKEFKCKVNSKSLPSPIERTISKAKGQPHEPQVYVLPPAQEELSRNKVSVTCLIKSFHPPDIAVEWEITGQPEPENNYRTTPPQLDSDGTYFVYSKLSVDRSHWQRGNTYTCHVSHEALHSHHTQKSLTQSPGK , thanks. 352000

Shifting focus to the binder that follows.
Return kon for the following binder: anti-NGF feline IgG1a, Fc variant S428L, Q311K (antibody, part only; not given: anti-NGF variable domains, light chain, not shown: another chain or arm of the molecule; small tags and cut ends) Fc: PPEMLGGPSIFIFPPKPKDTLSISRTPEVTCLVVDLGPDDSDVQITWFVDNTQVYTAKTSPREEQFNSTYRVVSVLPILHKDWLKGKEFKCKVNSKSLPSPIERTISKAKGQPHEPQVYVLPPAQEELSRNKVSVTCLIKSFHPPDIAVEWEITGQPEPENNYRTTPPQLDSDGTYFVYSKLSVDRSHWQRGNTYTCSVLHEALHSHHTQKSLTQSPGK 958000
